Target: UniProt P00734
Assay: In vitro inhibitory activity against thrombin in human plasma
Collected pIC50 values appear next to each entry.
Value format note: pIC50 is -log10 of concentration (mol/L); just state the number.

Reference set, count: 2
1. Cc1ccc(C(=O)NCC(=O)O)cc1-c1ccc2c(C)cc(Oc3ccc(C(=N)N)cc3)nc2c1; 8.10
2. Cc1cc(Oc2ccc(C(=N)N)cc2)nc2cc(Br)ccc12; 7.18

Lab note: measured pIC50 of CCOC(=O)CNC(=O)c1ccc(C)c(-c2ccc3c(C)cc(Oc4ccc(C(=N)N)cc4)nc3c2)c1 was 8.00
